Target: T1, mouse IL-2Rγ (mouse, UniProt P34902 23-263)
T1 construct: also called mo IL-2R
T1 sequence (looked up): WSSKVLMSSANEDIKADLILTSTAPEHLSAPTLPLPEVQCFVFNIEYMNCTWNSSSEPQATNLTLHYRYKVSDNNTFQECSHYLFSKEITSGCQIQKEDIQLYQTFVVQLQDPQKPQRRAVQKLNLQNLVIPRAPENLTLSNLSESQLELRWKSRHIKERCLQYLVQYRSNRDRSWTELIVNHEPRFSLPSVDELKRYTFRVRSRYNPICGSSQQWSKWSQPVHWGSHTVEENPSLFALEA
Test: SPR off-rate ranking, periplasmic extract on immobilised protein
Entries annotated with measured koff
reported-endpoint: koff (s⁻¹)

>>> reported_value("FJ1427_P035MP04C02 (VHH, VHH in periplasmic extract; also called clone nr) VHH: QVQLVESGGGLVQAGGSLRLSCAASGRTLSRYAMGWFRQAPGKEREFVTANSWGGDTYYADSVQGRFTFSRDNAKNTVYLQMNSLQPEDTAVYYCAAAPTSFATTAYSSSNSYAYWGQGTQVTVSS")
0.126
>>> reported_value("FJ1427_P035MP04E01 (VHH, VHH in periplasmic extract; also called clone nr) VHH: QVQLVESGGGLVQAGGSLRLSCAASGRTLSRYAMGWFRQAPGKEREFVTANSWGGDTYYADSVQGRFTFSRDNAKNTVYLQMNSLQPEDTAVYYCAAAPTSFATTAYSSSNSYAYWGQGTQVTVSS")
0.109
>>> reported_value("FJ1427_P035MP04D01 (VHH, VHH in periplasmic extract; also called clone nr) VHH: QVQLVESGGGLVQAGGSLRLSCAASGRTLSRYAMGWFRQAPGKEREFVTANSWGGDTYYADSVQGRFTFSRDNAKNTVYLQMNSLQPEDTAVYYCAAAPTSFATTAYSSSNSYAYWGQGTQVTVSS")
0.113
>>> reported_value("FJ1427_P035MP04F03 (VHH, VHH in periplasmic extract; also called clone nr; 310) VHH: QVQLVESGGGLVQAGGSLRLSCAASGRTLSRNAMGWFRQAPGKEREFVAADSWGGDTFYADSVEGRFTFSRDNAKNAVYLQMNSLQPEDTAVYYCAGAPTSFATTAYSSSNSYRYWGQGTQVTVSS")
0.061
>>> reported_value("FJ1427_P035MP04F01 (VHH, VHH in periplasmic extract; also called clone nr) VHH: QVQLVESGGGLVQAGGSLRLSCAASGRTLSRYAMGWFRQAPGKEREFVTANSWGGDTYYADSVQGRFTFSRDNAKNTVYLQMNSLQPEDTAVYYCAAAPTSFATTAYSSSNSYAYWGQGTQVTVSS")
0.11
>>> reported_value("FJ1427_P035MP04H07 (VHH, VHH in periplasmic extract; also called clone nr) VHH: QLQLVESGGGLVQAGGSLRLSCAASGRTLSRYAMGWFRQAPGKEREFVTANSWGGDTYYADSVQGRFTFSRDNAKNTVYLQMNSLQPEDTAVYYCAAAPTSFATTAYSSSNSYAYWGQGTQVTVSS")
0.101
